Sourced from PubChem BioAssay

tested on: glycogen synthase kinase-3 (GSK3A per assay name; protocol says GSK3B); assay: GSK3 binders on small-molecule microarrays, primary screen, biochemical, small-molecule microarray, 635 nm fluorescence, GSK3A (AID 1103); conditions: small-molecule microarray binding, fluorescence 635 nm; higher = more signal; further: the record names both GSK3A and GSK3B
Form field: composite z-score (one value per entry).
Reported endpoint: composite z-score

>  <Compound>
C[n+]1ccc(CCCO)cc1

>  <Reported endpoint>
composite z-score

>  <Quantitative result>
-0.262

$$$$
>  <Compound>
C[C@H]1C2=C3C(CC[C@H]4C(OCc5ccc(F)cc5C(F)(F)F)OC[C@](C)([C@@H]34)N(C(=O)OC(C)(C)C)C2)C(CO)C1CO (some centres not stated)

>  <Reported endpoint>
composite z-score

>  <Quantitative result>
0.875

$$$$
>  <Compound>
COc1ccc([Si](C)(C)[C@@H]2[C@@H](CCO)O[C@]3(C(=O)N(Cc4cccc(N5C(=O)c6ccccc6Oc6ccccc65)c4)c4ccccc43)[C@H]2C)cc1

>  <Reported endpoint>
composite z-score

>  <Quantitative result>
-0.735

$$$$
>  <Compound>
C=C[C@@H](COC(C)=O)NS(=O)(=O)c1ccc(Br)cc1

>  <Reported endpoint>
composite z-score

>  <Quantitative result>
0.444

$$$$
>  <Compound>
CCCCC(CC)C(O)C1C=CC2C(=O)N(c3ccccc3)C(=O)C2N1Nc1ccc([N+](=O)[O-])cc1 (configuration not stated)

>  <Reported endpoint>
composite z-score

>  <Quantitative result>
1.34

$$$$
>  <Compound>
O=C1O[C@@H](c2ccccc2)[C@@H](c2ccccc2)N2[C@@H](c3ccc(O)cc3)[C@]3(C(=O)Nc4ccc(C#CC5=CCCCC5)cc43)[C@@H](C(=O)N3CCN(c4ncccn4)CC3)[C@H]12

>  <Reported endpoint>
composite z-score

>  <Quantitative result>
1.28

$$$$
>  <Compound>
CC(C)(C)OC(=O)CC[C@@]1(C(=O)O)N=C(c2ccc(OCCCO)cc2)O[C@@H]1c1ccccc1

>  <Reported endpoint>
composite z-score

>  <Quantitative result>
-0.126

$$$$

----------
Readings of z-score for the listed compounds
experiment: inhibitors of hydroxyurea-induced Chk1 phosphorylation, primary screen, imaging, HeLa, phospho-Chk1 antibody, percent positive cells (AID 1186); details: hydroxyurea-induced phospho-Chk1 immunofluorescence imaging, higher = more signal

>  <Compound>
COC1(C)CN(Cc2ccccc2Br)[C@H](/C=C/c2ccccc2)[C@H](Cc2ccccc2)O1 (some centres undefined)

>  <z-score>
-1.6

$$$$
>  <Compound>
COC(=O)[C@@]1(Cc2ccc(F)cc2)[C@H]2c3cc(C(=O)N4CCCC4)n(CCc4c[nH]c5ccc(OC)cc45)c3C[C@H]2CN1C(=O)c1ccccc1

>  <z-score>
-0.371

$$$$
>  <Compound>
COc1c(C)cc(-c2cc3c(c(-c4ccccc4)n2)[Si](C(C)C)(C(C)C)OC3)cc1C

>  <z-score>
-0.645

$$$$
>  <Compound>
O=C1NC(=O)C2C1C=CC(C(O)c1ccc3c(c1)OCO3)N2Nc1ccccn1 (centres undefined)

>  <z-score>
0.095

$$$$

----------
This listing pairs molecules with measured z-score.
test: Plasmodium falciparum growth inhibition, primary screen, strain 3D7, DAPI fluorescence, 100 nL (AID 1184);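 further: parasites grown inside human red blood cells in medium with human serum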; conditions: P. falciparum 3D7 growth, 3 d, higher = more signal

>  <Molecule>
CC1CC/C=C\[C@H]2OC34C=CCN(CCN5CCOCC5)C(=O)[C@H]3N(CCO)C(=O)[C@@H]4C2C(=O)O1 (stereo partly specified)

>  <z-score>
0.055

$$$$
>  <Molecule>
COC(=O)[C@@]1(Cc2ccc(OC)cc2)[C@H]2c3cc(C(=O)N4CCCC4)n(CCc4cc5ccccc5[nH]4)c3C[C@H]2CN1C(=O)c1ccccc1

>  <z-score>
-1.66

$$$$
>  <Molecule>
CON(C)C(=O)C=C1C[C@@H](c2cccc(Cl)c2)O[C@@H](c2cccc(Cl)c2)O1

>  <z-score>
-2

$$$$
>  <Molecule>
C=CC[C@]12N=C(c3ccc(OCCCO)cc3)O[C@H]1c1ccccc1N(C)C2=O

>  <z-score>
-2.33

$$$$
>  <Molecule>
Cc1ccc(S[C@]2(C(=O)NC(C)C)CC(=O)N(C3Cc4ccccc4C3)[C@@H]2c2ccc(CO)cc2I)cc1

>  <z-score>
-0.619

$$$$
>  <Molecule>
COc1cc2c(cc1OC)CN(C(=O)[C@H]1[C@@H]3C(=O)O[C@@H](c4ccccc4)[C@@H](c4ccccc4)N3[C@@H](c3ccc(OCCO)cc3)[C@]13C(=O)Nc1ccc(C#CC4(O)CCCCCC4)cc13)CC2

>  <z-score>
-1.88

$$$$
>  <Molecule>
CC(C)N1CC=CC23O[C@@H]4C=CCOC(=O)[C@@H]4[C@H]2C(=O)N(C(C)CO)[C@@H]3C1=O (stereo partly specified)

>  <z-score>
0.383

$$$$
>  <Molecule>
Cc1ccc(C(C)CC(O)C2C=CC3C(=O)N(c4ccccc4)C(=O)C3N2Nc2ccc(C(C)C)cc2)o1 (stereo unspecified)

>  <z-score>
0.0472

$$$$
>  <Molecule>
COc1ccccc1CN1C(=O)c2ccccc2[C@@H](C(=O)NC(C)C)[C@@H]1c1ccc(CO)cc1

>  <z-score>
-0.425

$$$$
>  <Molecule>
CC(C)(C)OC(=O)CC[C@]1(C(=O)NCCN2CCOCC2)N=C(c2ccc(OCCCO)cc2)O[C@H]1c1ccccc1

>  <z-score>
0.207

$$$$
>  <Molecule>
C[N+](C)(C)CCCC[C@@H]1NC(=O)[C@@H]2C[C@H](C(=O)O)[C@H](c3ccc(O)cc3)N2C1=O

>  <z-score>
-0.195

$$$$
>  <Molecule>
COCCOC(=O)N1C(=O)[C@@]2(c3cc(C#CC4(O)CCCCCC4)ccc31)[C@H](C(N)=O)[C@H]1C(=O)O[C@H](c3ccccc3)[C@H](c3ccccc3)N1[C@@H]2c1ccc(O)cc1

>  <z-score>
0.997

$$$$
>  <Molecule>
O=C1NC(=O)C2C1C=CC(C(O)c1c(F)cccc1Cl)N2Nc1ccccn1 (stereo unspecified)

>  <z-score>
-0.362

$$$$
>  <Molecule>
O=C1c2ccccc2[C@](Cc2ccccc2I)(C(=O)NCc2ccccc2)[C@H](c2ccc(CO)cc2)N1C1CCCCC1

>  <z-score>
-1.34

$$$$
>  <Molecule>
CCCCN1CC=CC23O[C@@H]4C=CCOC(=O)[C@@H]4[C@H]2C(=O)N(CCCO)[C@@H]3C1=O (stereo partly specified)

>  <z-score>
-1.81

$$$$
>  <Molecule>
CCCC=C(CCC)[C@@H](NP(=O)(c1ccccc1)c1ccccc1)c1ccc(C(F)(F)F)cc1

>  <z-score>
-0.591

$$$$

----------
assay: anti-His antibody binders, primary screen, artefact control for SMM control protein annotation, biochemical, small-molecule microarray, 635 nm fluorescence (AID 1128); conditions: anti-His Alexa647 antibody binding, higher = more signal;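 further: score merges feature fluorescence with signal-to-noise for each printed compound spot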

>  <Compound>
CC[C@@H]1[C@H]2C3C(=O)N(CC)C(=O)C3CC(=O)[C@H]2[C@H](c2ccc(C)cc2)N1S(=O)(=O)c1ccc(C)cc1 (some centres undefined)

>  <composite z-score>
0.733

$$$$
>  <Compound>
CCCCN1CC=CC23O[C@@H]4/C=C\CCC(C)OC(=O)C4[C@H]2C(=O)N(CCCCCCO)[C@@H]3C1=O (some centres undefined)

>  <composite z-score>
0.539

$$$$
>  <Compound>
O=C1OCC=C[C@H]2OC34C=CCN(c5ccc(Cl)cc5)C(=O)[C@H]3N(CCCCCO)C(=O)[C@@H]4[C@@H]12 (some centres undefined)

>  <composite z-score>
3.93

$$$$
>  <Compound>
CC(C)C(CO)N1C(=O)[C@]2(C)C3C(=O)OCCC/C=C\[C@H]3OC23C=CCN(c2ccc(Cl)cc2)C(=O)[C@@H]13 (some centres undefined)

>  <composite z-score>
-0.0262

$$$$

----------
test: PSAC antagonists in infected red cells, primary screen, cell-based, P. falciparum Indochina, OD700, 18 h (AID 1157); conditions: P. falciparum Indochina infected erythrocytes, osmotic lysis OD700, 18 h, called active from +8 up or from −8 down
Active and inactive are the calls of the source.
Classes used: 1 (yes) = active, 0 (no) = inactive

>  <Molecule>
C[C@H]1C2=C3C(CC[C@H]4C(OCc5ccc(F)cc5C(F)(F)F)OC[C@](C)([C@@H]34)N(C(=O)OC(C)(C)C)C2)C2COC(=O)OCC21 (stereo partly drawn)

>  <Class name>
0 (no)

$$$$
>  <Molecule>
CC(C)C(O)C1C=CC2C(=O)N(C)C(=O)C2N1N(c1ccccc1)c1ccccc1 (stereo not drawn)

>  <Class name>
0 (no)

$$$$
>  <Molecule>
CC[C@H]1C2=C3C(CC[C@H]4C(OCc5ccc(F)cc5C(F)(F)F)OC[C@](C)([C@@H]34)N(C(=O)OC(C)(C)C)C2)C2COC(=O)OCC21 (stereo partly drawn)

>  <Class name>
0 (no)

$$$$
>  <Molecule>
C=CC[C@@]12N=C(c3ccc(OCCCO)cc3)O[C@@H]1c1ccccc1N(CCS(=O)(=O)c1ccccc1)C2=O

>  <Class name>
1 (yes)

$$$$
>  <Molecule>
C=C(/C(=C/C[C@@H](OC(=O)c1ccncc1)c1ccccc1OCCO)c1cc(C(=O)OC)ccc1OC)C(C)C

>  <Class name>
0 (no)

$$$$
>  <Molecule>
COC(=O)C1(Cc2ccccc2)C=C2C(=C(C(C)C)C(=O)C2C)CN1 (stereo not drawn)

>  <Class name>
0 (no)

$$$$
>  <Molecule>
CCOC(=O)C1=C[C@@H](c2ccccc2)N(S(=O)(=O)c2ccc(C)cc2)[C@H]1c1cccc(Cl)c1

>  <Class name>
0 (no)

$$$$
>  <Molecule>
C=CC[C@@]1(C(=O)N2CCCCC2)N=C(c2ccc(OCCCO)cc2)O[C@@H]1c1ccccc1

>  <Class name>
0 (no)

$$$$
